What antibody concentration required to reach half value of the mean fluorescence intensity was measured for each of the following?
- Tested target: T1, A33 antigen (full-length human A33) (human, UniProt Q99795 22-319)
- T1 construct: Class I cell membrane protein of the Ig superfamily; also called GPA33; human A33 antigen
- T1 sequence: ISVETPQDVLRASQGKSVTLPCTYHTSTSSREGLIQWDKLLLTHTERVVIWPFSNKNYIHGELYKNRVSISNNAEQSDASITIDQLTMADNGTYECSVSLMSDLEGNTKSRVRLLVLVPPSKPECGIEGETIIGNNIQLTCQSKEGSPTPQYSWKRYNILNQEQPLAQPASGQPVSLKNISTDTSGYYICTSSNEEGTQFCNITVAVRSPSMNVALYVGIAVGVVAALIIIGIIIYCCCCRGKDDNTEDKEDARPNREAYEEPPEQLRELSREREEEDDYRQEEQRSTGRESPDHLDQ
- Test name: FCM on NCI-H508 cells; grade = ng/ml to reach half MFI 175 (+++ 10<=x<100, ++ 100<=x<1000, + 1000<=x<10000)

Consider the following illustrative entries.
recQ54 (antibody, V domains shown, also called recQ54 antibody; Q54 recombinant antibody) VH: EVQLLESGGGLVQPGGSLRLSCAASGFTFSSYAMSWVRQAPGKGLEWVSDISGSGGYTYYADSVKGRFTISRDNSKNTLYLQMNSLRAEDTAVYYCAKTGDGSGSYSPDSWGQGTLVTVSS VL: DIQMTQSPSSLSASVGDRVTITCRASQGISRWLAWYQQKPEKAPKSLIYAASSLQSGVPSRFSGSGSGTDFTLTISSLQPEDFATYYCQQYNSYPYTFGQGTKLEIK ... 10 to 100 ng/mL
recM10 (antibody, V domains shown, also called recM10 antibody; M10 recombinant antibody) VH: QLQVQESGPGLVKPSETLSLICTVSGGSIRTSGYYWGWFRQPPGKGLEWIGTSHNSGSTYYNPSLKSRVTISVDTSKNQFSLKLNSVTAADTAVYYCARQGYDFKVNIDVWGQGTTVTVSS VL: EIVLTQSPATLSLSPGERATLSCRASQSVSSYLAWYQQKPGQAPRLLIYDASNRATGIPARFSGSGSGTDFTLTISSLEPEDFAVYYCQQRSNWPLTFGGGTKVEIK ... 10 to 100 ng/mL
recN26 (antibody, V domains shown, also called recN26 antibody; N26 recombinant antibody) VH: QVQLVESGGGVVQPGRSLRLSCAASGFTFSHYGMHWVRQAPGKGLEWVALIWYDGSNKYYADSVKGRFTISRDNSKNTLYLQMNSLRAEDTAVYYCARDPLAAGTSYFDYWGQGTLVTVSS VL: EIVLTQSPDFQSVTPKEKVTITCRASQSIGSSLHWYQQKPDQSPKLLIKYASQSFSGVPSRFSGSGSGTDFTLTINSLEAEDAAAYYCHQSSSLPFTFGPGTKVDIK ... 10 to 100 ng/mL
recM165 (antibody, V domains shown, also called recM165 antibody; M165 recombinant antibody) VH: QVQLVESGGGVVQPGRSLRLSCAASGFTFSYYGMHWVRQAPGKGLEWVAVIWYDGSNKYYADSVKGRFTISRDNSKKTLYLQMNSLRAEDTAVYYCARDGHSSGWGDFQHWGQGTLVTVSS VL: EIVLTQSPATLSLSPGERATLSCRASQSVSSSLAWYQQKPGQAPRLLIYDASNRATGIPARFSGSGSGTDFTLTISSLEPEDFAIYYCQQRSNWPPTFGQGTKVEIK ... 100 to 1000 ng/mL

Hi there! I need antibody concentration required to reach half value of the mean fluorescence intensity for each item below, if you can.
1. rec263 (antibody, V domains shown, also called rec263 antibody; rec263A1) VH: EVQLLESGGGLVQPGGSLRLSCAASGFTFSSYAMSWIRQAPGKGLEWVSAISASGGSTYYADSVKGRFTISRDNSKNTLYLQMNSLRAEDTAVYYCAKDRIVGATNYYYGMDVWGQGTTVTVSS VL: DIQMTQSPPSVSASVGDRVTITCRASQGISSWLAWYQHKPGKAPKLLIYGASSLQSGVPSRFSGSGSGTDFTLTISSLQPEDFATYYCQQANSFPITFGQGTRLEIK
2. chimeric anti-A33 antibody (antibody, V domains shown, Mouse variable regions with human IgG1 heavy chain and light chain constant regions (N5KG1-Val Lark vector); also called cA33; chimeric anti-A33 recombinant antibody) VH: EVKLVESGGGLVKPGGSLKLSCAASGFAFSTYDMSWVRQTPEKRLEWVATISSGGSYTYYLDSVKGRFTISRDSARNTLYLQMSSLRSEDTALYYCAPTTVVPFAYWGQGTLVTVSS VL: DIVMTQSQKFMSTSVGDRVSITCKASQNVRTVVAWYQQKPGQSPKTLIYLASNRHTGVPDRFTGSGSGTDFTLTISNVQSEDLADYFCLQHWSYPLTFGSGTKLEVK

RESULT:
100 to 1000 ng/mL
10 to 100 ng/mL
